Values were extracted from paper PMC2797486.

assayed_system: HIV-1 protease (Human immunodeficiency virus type 1 group M subtype B, UniProt P04585)
test_name: HIV-1 protease enzyme inhibition, assay protocol of Toth and Marshall
Assay type: biochemical
experimental_conditions: means of at least two experiments, listed as 27
readout_label: Ki (nM)
Express your answer in nM, writing the number without its unit.

So for COc1ccc(S(=O)(=O)N(CC(C)C)C[C@@H](O)[C@H](Cc2ccccc2)NC(=O)OC2CC3OCOCOC3C2)cc1 (stereo partly shown) [Inhibitor 27] , the logged Ki turned out to be 5.4

* * *

System: HIV-1MDR/MM (R5)
test_name: microbe, parasite or virus in culture
Assay type: cell-based
experimental_conditions: Human immunodeficiency virus 1
Each entry below carries its recorded IC50.

// sample CC(C)(C)NC(=O)[C@@H]1CN(Cc2cccnc2)CCN1C[C@@H](O)C[C@@H](Cc1ccccc1)C(=O)N[C@H]1c2ccccc2C[C@H]1O [IDV, indinavir] , its IC50 was > 1000 nM

***
Item: CC(C)(C)NC(=O)[C@@H]1C[C@@H]2CCCC[C@@H]2CN1C[C@@H](O)[C@H](Cc1ccccc1)NC(=O)[C@H](CC(N)=O)NC(=O)c1ccc2ccccc2n1 [SQV, saquinavir] | IC50: 190 nM

Entry CC(C)CN(C[C@@H](O)[C@H](Cc1ccccc1)NC(=O)O[C@H]1CCOC1)S(=O)(=O)c1ccc(N)cc1 [APV, amprenavir] ; IC50 = 300 nM

* * *

System: HIV-1MDR/JSL (R5)
test_name: microbe, parasite or virus in culture
Assay type: cell-based
experimental_conditions: HIV-1MDR/JSL (R5), PBMC
readout_label: number in parentheses after IC50 (fold change relative to HIV-1ERS104pre)
Answer using only a numeral; do not append any unit.

Example entries and their recorded answers appear below.
Measured number in parentheses after IC50 (fold change relative to HIV-1ERS104pre) of COc1ccc(S(=O)(=O)N(CC(C)C)C[C@@H](O)[C@H](Cc2ccccc2)NC(=O)OC2CC3OCOC3C2)cc1 (stereo partly shown) : 19

The molecule identified as "CC(C)CN(C[C@@H](O)[C@H](Cc1ccccc1)NC(=O)O[C@H]1CCOC1)S(=O)(=O)c1ccc(N)cc1" registered its number in parentheses after IC50 (fold change relative to HIV-1ERS104pre) at 13

In the following, a different molecule is considered.
Value of measured number in parentheses after IC50 (fold change relative to HIV-1ERS104pre) for the entry "CC(C)(C)NC(=O)[C@@H]1C[C@@H]2CCCC[C@@H]2CN1C[C@@H](O)[C@H](Cc1ccccc1)NC(=O)[C@H](CC(N)=O)NC(=O)c1ccc2ccccc2n1" : 28

* * *

assayed_system: UniProt:P04585
test_name: HIV-1 protease enzyme inhibition, assay protocol of Toth and Marshall
Format: biochemical
experimental_conditions: means of at least two experiments, listed as 2
readout_label: Ki (nM)
Use nM as the unit, but write only the number.

Response field Ki (UniProt:P04585) for item COc1ccc(S(=O)(=O)N(CC(C)C)C[C@@H](O)[C@H](Cc2ccccc2)NC(=O)OC2CC3OCOC3C2)cc1 (stereo partly shown) [Inhibitor 2] : 0.11

* * *

System: HIV-1MDR/A (X4)
test_name: microbe, parasite or virus in culture
Assay type: cell-based
experimental_conditions: HIV-1MDR/A (X4), PBMC
readout_label: number in parentheses after IC50 (fold change relative to HIV-1ERS104pre)

Lab note: compound COc1ccc(S(=O)(=O)N(CC(C)C)C[C@@H](O)[C@H](Cc2ccccc2)NC(=O)OC2CC3OCOC3C2)cc1 (stereo partly shown) tested on HIV-1MDR/A (X4); recorded number in parentheses after IC50 (fold change relative to HIV-1ERS104pre) was 1

The compound "CC(C)(C)NC(=O)[C@@H]1CN(Cc2cccnc2)CCN1C[C@@H](O)C[C@@H](Cc1ccccc1)C(=O)N[C@H]1c2ccccc2C[C@H]1O" , tested on HIV-1MDR/A (X4), showed number in parentheses after IC50 (fold change relative to HIV-1ERS104pre) of > 38

So the reported number in parentheses after IC50 (fold change relative to HIV-1ERS104pre) for "CC(C)(C)NC(=O)[C@@H]1C[C@@H]2CCCC[C@@H]2CN1C[C@@H](O)[C@H](Cc1ccccc1)NC(=O)[C@H](CC(N)=O)NC(=O)c1ccc2ccccc2n1" , on HIV-1MDR/A (X4), turned out to be 7

Attention now shifts to the item below.
Record "CC(C)CN(C[C@@H](O)[C@H](Cc1ccccc1)NC(=O)O[C@H]1CCOC1)S(=O)(=O)c1ccc(N)cc1" ; system HIV-1MDR/A (X4); number in parentheses after IC50 (fold change relative to HIV-1ERS104pre) = 3

* * *

assayed_system: HIV-1 protease (Human immunodeficiency virus type 1 group M subtype B, UniProt P04585)
test_name: HIV-1 protease enzyme inhibition, assay protocol of Toth and Marshall
Format: biochemical
experimental_conditions: means of at least two experiments, listed as 26
readout_label: pKi
Quick note: pKi means taking -log10 of the concentration in moles per liter.

Entry COc1ccc(S(=O)(=O)N(CC(C)C)C[C@@H](O)[C@H](Cc2ccccc2)NC(=O)OC2CC3OCOC3C2)cc1 (stereo partly shown) ; pKi = 9.40

* * *

assayed_system: HIV-1 protease (Human immunodeficiency virus type 1 group M subtype B, UniProt P04585)
test_name: HIV-1 protease enzyme inhibition, assay protocol of Toth and Marshall
Assay type: biochemical
experimental_conditions: means of at least two experiments
In this section, each of the compounds is paired with its reported pKi.
When answering, recall that pKi equals minus log10 of the concentration in mol/L, and write that number alone.

compound COc1ccc(S(=O)(=O)N(CC(C)C)C[C@@H](O)[C@H](Cc2ccccc2)NC(=O)OC2CC3OCCOC3C2)cc1 (some centres unmarked) , pKi observed: 9.30

Now look at this one.
// pKi value for CC(C)CN(C[C@@H](O)[C@H](Cc1ccccc1)NC(=O)OC1CC2OCOC2C1)S(=O)(=O)c1ccc(CO)cc1 (some centres unmarked) : 9.47

* * *

Tested on: HIV-1MDR/MM (R5)
test_name: microbe, parasite or virus in culture
Type: cell-based
experimental_conditions: PHA-PBMC, p24 Gag production, HIV-1MDR/MM (R5), triplicate
readout_label: pIC50
pIC50 here: minus log base 10 of the concentration, concentration in moles per litre.

For COc1ccc(S(=O)(=O)N(CC(C)C)C[C@@H](O)[C@H](Cc2ccccc2)NC(=O)OC2CC3OCOC3C2)cc1 (stereo partly shown) the molecule record lists pIC50 as 6.82

* * *

Test system: HIV-1MDR/C (X4)
test_name: microbe, parasite or virus in culture
Type: cell-based
experimental_conditions: HIV-1MDR/C (X4), PBMC
readout_label: number in parentheses after IC50 (fold change relative to HIV-1ERS104pre)
Could you respond with only the numeric value?

Example molecules with recorded number in parentheses after IC50 (fold change relative to HIV-1ERS104pre):
number in parentheses after IC50 (fold change relative to HIV-1ERS104pre) reported for this molecule COc1ccc(S(=O)(=O)N(CC(C)C)C[C@@H](O)[C@H](Cc2ccccc2)NC(=O)OC2CC3OCOC3C2)cc1 (stereo partly shown) [Inhibitor 2] : 10

Item: CC(C)CN(C[C@@H](O)[C@H](Cc1ccccc1)NC(=O)O[C@H]1CCOC1)S(=O)(=O)c1ccc(N)cc1 [APV, amprenavir] | number in parentheses after IC50 (fold change relative to HIV-1ERS104pre): 7

Alright, here's another molecule for you.
// recorded number in parentheses after IC50 (fold change relative to HIV-1ERS104pre) for CC(C)(C)NC(=O)[C@@H]1C[C@@H]2CCCC[C@@H]2CN1C[C@@H](O)[C@H](Cc1ccccc1)NC(=O)[C@H](CC(N)=O)NC(=O)c1ccc2ccccc2n1 [SQV, saquinavir] : 3

* * *

Test system: HIV-1ERS104pre (wild-type: X4)
test_name: Antiviral activity in PHA-PBMC, inhibition of p24 Gag production, HIV-1ERS104pre
Format: cell-based
experimental_conditions: PHA-PBMC, p24 Gag production, HIV-1ERS104pre (wild-type: X4), triplicate
readout_label: IC50 (nM)
Give the quantity in nM, number only.

With HIV-1ERS104pre (wild-type: X4) as the test system, COc1ccc(S(=O)(=O)N(CC(C)C)C[C@@H](O)[C@H](Cc2ccccc2)NC(=O)OC2CC3OCOC3C2)cc1 (stereo partly shown) [Inhibitor 2] showed IC50 of 29

* * *

Tested on: HIV-1MDR/JSL (R5)
test_name: microbe, parasite or virus in culture
Format: cell-based
experimental_conditions: PHA-PBMC, p24 Gag production, HIV-1MDR/JSL (R5), triplicate
readout_label: IC50 (nM)
Give the value in nM but do not write nM after it.

compound COc1ccc(S(=O)(=O)N(CC(C)C)C[C@@H](O)[C@H](Cc2ccccc2)NC(=O)OC2CC3OCOC3C2)cc1 (stereo partly shown) , IC50 observed: 550
